- Tested on: 843782-103-R-J1-PDC complex spheroid viability;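 further: viability read after seven days of compound exposure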
- Protocol Text: Anticancer human tumor 843782-103-R-J1-PDC patient-derived lung adenocarcinoma cell line growth inhibition [RAS]; active means viability on the fitted dose curve at most 10% of control; inactive means the rest
- Measurement Parameters: second compound 0.003 µM; first compound 0.1 µM
Labels: y = active, n = inactive

[[record]]
molecule = "C[C@@H](NC(=O)c1ncnc(N)c1Cl)c1ncc(C(=O)Nc2cc(C(F)(F)F)c(Cl)cn2)s1 + CCn1c(-c2cccnc2C(C)OC)c2c3cc(ccc31)N1CCOC(CC(NC(=O)C(C(C)C)N(C)C(=O)C3(F)CCN(C(=O)C#CC(C)(C)N(C)C)CC3)C(=O)N3CCCC(N3)C(=O)OCC(C)(C)C2)C1"
group = "n"

[[record]]
molecule = "CC(=O)OC12COC1CC(O)C1(C)C(=O)C(O)C3=C(C)C(OC(=O)C(O)C(NC(=O)OC(C)(C)C)c4ccccc4)CC(O)(C(OC(=O)c4ccccc4)C21)C3(C)C (centres undefined) + CCn1c(-c2cc(N3CCN(C)CC3)cnc2C(C)OC)c2c3cc(ccc31)-c1csc(n1)CC(NC(=O)C1CC1C)C(=O)N1CCCC(N1)C(=O)OCC(C)(C)C2"
group = "y"

[[record]]
molecule = "CC1(O)CCCC1n1c(=O)c(C(F)F)cc2cnc(NC3CCN(S(C)(=O)=O)CC3)nc21 (centres undefined) + CCn1c(-c2cc(N3CCN(C)CC3)cnc2C(C)OC)c2c3cc(ccc31)-c1csc(n1)CC(NC(=O)C1CC1C)C(=O)N1CCCC(N1)C(=O)OCC(C)(C)C2"
group = "n"

[[record]]
molecule = "CC(C)n1nc(-c2ccc3oc(N)nc3c2)c2c(N)ncnc21 + CCn1c(-c2cc(N3CCN(C)CC3)cnc2C(C)OC)c2c3cc(ccc31)-c1csc(n1)CC(NC(=O)C1CC1C)C(=O)N1CCCC(N1)C(=O)OCC(C)(C)C2"
group = "n"

